Molecular target: human-KAT6A (MYST domain 507-778 aa) (Homo sapiens (Human))
Sequence (Q92794 507-778): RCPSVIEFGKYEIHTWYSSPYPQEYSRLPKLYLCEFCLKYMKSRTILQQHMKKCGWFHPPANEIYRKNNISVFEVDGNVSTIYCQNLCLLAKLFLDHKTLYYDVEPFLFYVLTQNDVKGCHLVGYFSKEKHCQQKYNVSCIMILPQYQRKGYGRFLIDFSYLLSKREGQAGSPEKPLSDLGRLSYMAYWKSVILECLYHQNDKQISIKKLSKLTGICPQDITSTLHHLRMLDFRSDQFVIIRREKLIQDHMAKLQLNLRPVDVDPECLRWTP
Test: KAT6A biochemical assay (TR-FRET)
Conditions: @ 1 μM; reported where IC50 could not be determined; read-out: Percent inhibition at specific concentration (KAT6A)
reported_metric: inhibition at 1 µM (%)
Answers are plain numbers, in %.

A selection of reference data follows.
# molecule, reported_metric, readout_unit, measured_value
measured = [
    ("COc1cccc(OC)c1S(=O)(=O)NC(=O)c1ccc(Cn2cccn2)c(OC(F)F)n1", "inhibition at 1 µM", "%", 16),
    ("CN=S(=O)(NC(=O)c1ccc(Cn2cccn2)c(OC)c1)c1c(OC)cccc1OC (stereo not drawn)", "inhibition at 1 µM", "%", 47),
    ("COc1nc(C(=O)N[S@](=N)(=O)c2ccccc2F)ccc1Cn1cccn1 [Compound 307b]", "inhibition at 1 µM", "%", 46),
    ("COc1ccc(C(C)(C)C)cc1S(=O)(=O)NC(=O)c1ccc(Cn2cccn2)n(C)c1=O", "inhibition at 1 µM", "%", 45),
    ("COc1cccc(OC)c1S(=O)(=O)NC(=O)c1ccc(Cn2cccn2)c(OC)c1OC", "inhibition at 1 µM", "%", 35),
]

Exercise: # inhibition at 1 µM lookup, item COc1ccc(C(C)(C)C)cc1S(=O)(=O)NC(=O)c1ccc(Cn2cccn2)c(=O)n1C
Key: 25

* * *

Biological target: human-KAT6A (MYST domain 507-778 aa) (Homo sapiens (Human))
Experiment: KAT6A biochemical assay (TR-FRET)
Settings: TR-FRET; histone H4 peptide 200 nM, acetyl-CoA 600 nM; read-out: KAT6A IC50
reported_metric: IC50 (nM)
Numbers only, in nM.

A selection of reference data follows.
# molecule, reported_metric, readout_unit, measured_value
data = [
    ("COc1ccc2c(c1S(=O)(=O)NC(=O)c1ccc(Cn3cccn3)c(OC)n1)CCC2", "IC50", "nM", 12),
    ("COc1cc(C(=O)NS(=O)(=O)c2ccc(C(C)(C)C)cc2OC)ccc1Cn1cccn1", "IC50", "nM", 17),
    ("COc1cccc(OC)c1[S@@](=N)(=O)NC(=O)c1ccc(Cn2cccn2)c(OC(F)(F)F)c1 [Compound 300b]", "IC50", "nM", 18),
]

// each molecule listed below needs its IC50
1. CCc1ccc(OC)c(S(=O)(=O)NC(=O)c2ccc(Cn3cccn3)c(OC)n2)c1OC
2. COc1cc(C(=O)N[S@](=N)(=O)c2c(OC)ccc(Cl)c2OC)ccc1Cn1cccn1 [Compound 302b]

Key:
10
304

// each molecule listed below needs its IC50
1. COc1cc(C(=O)NS(=O)(=O)c2ccccc2OC)ccc1Cn1cccn1
2. COc1cc(OC)c(S(=O)(=O)NC(=O)c2ccc(Cn3cccn3)c(OC)n2)cc1Br
3. COc1cccc(OC(F)(F)F)c1S(=O)(=O)NC(=O)c1ccc(Cn2cccn2)c(OC)n1
4. COc1ccc(C(C)(C)CO)cc1[S@@](=N)(=O)NC(=O)c1ccc(Cn2cccn2)c(OC)n1 [Compound 290b]
5. COc1cc(C(=O)N[S@@](=N)(=O)c2c(OC)ccc(C)c2OC)ccc1Cn1cccn1 [Compound 304a]
6. COc1nc(C(=O)NS(=O)(=O)c2ccc3c(c2)CCC3)ccc1Cn1cccn1
7. COc1cc(C(=O)NS(=O)(=O)c2c(OC)cccc2OC)ccc1COc1nccs1

Key:
1. 25
2. 10
3. 7
4. 33
5. 18
6. 42
7. 177
